The measurements presented in this section are drawn from patent US20260306491A1.

measurementNotes: Solubility screening of malonate salt of Compound I in various solvents at RT
Assay type: physicochemical
conditionNotes: organic solvent or mixture; IPAc, RT
Protocol: The solubility of the malonate salt of Compound I as prepared according to Example 2 in various solvents at RT was measured. The malonate salt of Compound I (approximately 2 mg) was added to a 3-mL glass vial. The solvent was then added stepwise (50/50/200/200/500/1000 μL) into the vial until the solids were dissolved visually or a total volume of 2 mL was reached.
Where a name gives a salt, the structure may show the parent alone.
readout: solubility

Fill in the blank: the reported solubility of C=CC(=O)Nc1cc(Nc2cc(N3OCC[C@@H]3c3cc(F)cc(F)c3)ncn2)c(OC)cc1N1CCC(N2CCN(C3CC3)CC2)CC1 [malonate salt of Compound I] is ____.
< 900 µg/mL

---

measurementNotes: Solubility screening of malonate salt of Compound I in various solvents at RT
Type: physicochemical
conditionNotes: organic solvent or mixture; 2-MeTHF, RT
Counter-ions that a name gives are not always drawn.
readout: solubility

For C=CC(=O)Nc1cc(Nc2cc(N3OCC[C@@H]3c3cc(F)cc(F)c3)ncn2)c(OC)cc1N1CCC(N2CCN(C3CC3)CC2)CC1 [malonate salt of Compound I] , what is its reported solubility?
1100 to 2200 µg/mL

---

measurementNotes: Solubility screening of malonate salt of Compound I in various solvents at RT
Assay type: physicochemical
conditionNotes: organic solvent or mixture; EtOH, RT
Where a name gives a salt, the structure may show the parent alone.
readout: solubility

Given the entry C=CC(=O)Nc1cc(Nc2cc(N3OCC[C@@H]3c3cc(F)cc(F)c3)ncn2)c(OC)cc1N1CCC(N2CCN(C3CC3)CC2)CC1 [malonate salt of Compound I] , report its measured solubility.
1.9 to 6.3 mg/mL

---

measurementNotes: Solubility screening of malonate salt of Compound I in various solvents at RT
Type: physicochemical
conditionNotes: organic solvent or mixture; DMSO, RT
Procedure: The solubility of the malonate salt of Compound I as prepared according to Example 2 in various solvents at RT was measured. The malonate salt of Compound I (approximately 2 mg) was added to a 3-mL glass vial. The solvent was then added stepwise (50/50/200/200/500/1000 μL) into the vial until the solids were dissolved visually or a total volume of 2 mL was reached.
Where a name gives a salt, the structure may show the parent alone.
readout: solubility

Record request: solubility value, item C=CC(=O)Nc1cc(Nc2cc(N3OCC[C@@H]3c3cc(F)cc(F)c3)ncn2)c(OC)cc1N1CCC(N2CCN(C3CC3)CC2)CC1 [malonate salt of Compound I]
> 40 mg/mL

---

measurementNotes: Solubility screening of malonate salt of Compound I in various solvents at RT
Type: physicochemical
conditionNotes: organic solvent or mixture; Anisole, RT
Structures can show the parent of a compound that is named as a salt.
readout: solubility

Need solubility of C=CC(=O)Nc1cc(Nc2cc(N3OCC[C@@H]3c3cc(F)cc(F)c3)ncn2)c(OC)cc1N1CCC(N2CCN(C3CC3)CC2)CC1 [malonate salt of Compound I] , thanks.
< 900 µg/mL

---

targetDesc: EGFR_L747S (Homo sapiens, UniProt P00533, L747S)
Construct: purchased SignalChem E10-122Y2G
Sequence (P00533 25-1210 L747S): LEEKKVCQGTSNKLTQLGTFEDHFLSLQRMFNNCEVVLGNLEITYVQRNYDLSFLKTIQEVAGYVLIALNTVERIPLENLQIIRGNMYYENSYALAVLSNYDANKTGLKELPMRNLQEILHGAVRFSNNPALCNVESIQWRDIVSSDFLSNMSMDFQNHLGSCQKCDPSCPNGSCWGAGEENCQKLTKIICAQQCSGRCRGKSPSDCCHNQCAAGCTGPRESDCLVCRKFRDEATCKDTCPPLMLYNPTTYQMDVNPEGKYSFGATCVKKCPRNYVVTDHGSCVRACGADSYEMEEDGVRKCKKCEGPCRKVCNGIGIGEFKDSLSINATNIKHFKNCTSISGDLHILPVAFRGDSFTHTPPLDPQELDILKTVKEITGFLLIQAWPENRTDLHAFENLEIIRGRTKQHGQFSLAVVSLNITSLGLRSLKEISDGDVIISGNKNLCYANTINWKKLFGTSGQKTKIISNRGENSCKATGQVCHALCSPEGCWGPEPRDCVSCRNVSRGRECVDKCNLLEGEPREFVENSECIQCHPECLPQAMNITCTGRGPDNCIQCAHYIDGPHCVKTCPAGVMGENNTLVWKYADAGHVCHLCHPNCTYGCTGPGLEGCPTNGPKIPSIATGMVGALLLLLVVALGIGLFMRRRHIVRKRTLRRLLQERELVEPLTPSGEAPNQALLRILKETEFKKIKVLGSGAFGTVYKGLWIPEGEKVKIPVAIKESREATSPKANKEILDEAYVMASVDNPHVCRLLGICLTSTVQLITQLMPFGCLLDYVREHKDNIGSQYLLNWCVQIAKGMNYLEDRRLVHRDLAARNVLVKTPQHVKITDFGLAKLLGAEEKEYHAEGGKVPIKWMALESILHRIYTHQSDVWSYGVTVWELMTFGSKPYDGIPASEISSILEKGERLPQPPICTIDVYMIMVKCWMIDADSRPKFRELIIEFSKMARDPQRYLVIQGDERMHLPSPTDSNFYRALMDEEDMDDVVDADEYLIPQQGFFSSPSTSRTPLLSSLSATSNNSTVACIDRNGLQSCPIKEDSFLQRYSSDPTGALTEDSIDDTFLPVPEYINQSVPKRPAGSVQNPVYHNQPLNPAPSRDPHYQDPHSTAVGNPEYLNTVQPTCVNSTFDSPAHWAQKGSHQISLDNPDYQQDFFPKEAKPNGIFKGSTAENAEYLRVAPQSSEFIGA
measurementNotes: EGFR kinase activity (AQT0794 peptide, Sox fluorescence)
Format: biochemical
conditionNotes: 1 mM ATP, 0.5 nM enzyme, room temperature
readout: IC50 (nM)
# output: bare number, implied unit nM

Query (compound): C=CC(=O)Nc1cc(Nc2cc(N3OCC[C@@H]3c3cc(F)cc(F)c3)ncn2)c(OC)cc1N1CCC(N2CCN(C3CC3)CC2)CC1 [Compound I] ; field requested: IC50
1.5
